Reference source for all entries: patent US11447486B2

- assay.target: human 5-LOX (Homo sapiens)
- Construct: purchased Cayman 60402; host or cells: insect cells (lysate)
- Sequence (P09917 whole entry): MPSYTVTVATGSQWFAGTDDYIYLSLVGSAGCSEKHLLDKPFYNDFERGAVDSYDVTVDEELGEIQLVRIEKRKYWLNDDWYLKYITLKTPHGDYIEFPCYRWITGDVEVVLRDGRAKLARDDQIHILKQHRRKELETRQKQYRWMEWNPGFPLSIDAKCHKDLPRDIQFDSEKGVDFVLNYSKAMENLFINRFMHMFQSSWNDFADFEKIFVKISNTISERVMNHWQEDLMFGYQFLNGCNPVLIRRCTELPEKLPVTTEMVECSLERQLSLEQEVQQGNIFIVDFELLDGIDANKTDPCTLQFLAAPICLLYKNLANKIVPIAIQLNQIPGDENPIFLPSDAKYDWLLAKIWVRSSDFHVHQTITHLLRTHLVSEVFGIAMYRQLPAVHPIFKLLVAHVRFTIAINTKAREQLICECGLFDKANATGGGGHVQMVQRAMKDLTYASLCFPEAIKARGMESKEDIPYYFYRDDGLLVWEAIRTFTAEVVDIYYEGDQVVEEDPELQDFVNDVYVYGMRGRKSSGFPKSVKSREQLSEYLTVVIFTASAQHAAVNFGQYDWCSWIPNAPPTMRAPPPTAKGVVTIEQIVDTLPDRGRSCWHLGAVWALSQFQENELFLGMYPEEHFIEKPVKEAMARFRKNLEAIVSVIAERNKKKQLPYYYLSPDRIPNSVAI
- measurement.notes: 5-LOX enzyme activity, fluorescence method (5-HPETE, H2DCFDA)
- Format: biochemical
- particulars: read-out: 5-LO (IC50)
- Experimental: The activity of compounds against 5-LOX were determined by measuring LTB4 (leukotriene B4) levels and/or by a fluorescence method. Both approaches are outlined in more detail below; The compound, in a dose response manner(0.5 nM to 10 uM), and enzyme mixture was pre-incubated for 5 minutes, and the enzymatic reaction was initiated by addition of ATP and arachidonic acid to a final concentration of 100 uM and 3 uM, respectively. […] All steps were carried out at room temperature.
measured.attribute: IC50

                                    molecule  endpoint_value
 0  CCC(Nc1nc2ccc(Nc3cc(C(F)(F)F)n(C)n3)cc2n1C)c1ccc(Oc2cnc(C(F)(F)F)cn2)cc1 (stereo not shown) [Compound 522]         > 10 µM
 1  Cn1c(NCc2ccc(Oc3ncc(Cl)cc3F)cc2)nc2ccc(N)cc21 [Compound 323]          < 1 µM
 2  Cc1cc(CNc2nc3ccc(NC4COC4)cc3n2C)cc(C)c1Oc1ncc(Cl)cn1 [Compound 418]          < 1 µM
 3  Nc1ccc2nc(NCCC(F)(F)F)n(Cc3ccc(Oc4ccc(Cl)cc4)cc3)c2c1 [Compound 264]          < 1 µM
 4  Cn1c(NCc2ccc(Oc3ccc(Cl)cn3)nc2)nc2ccc(NC3COC3)cc21 [Compound 309]          < 1 µM
 5  Cc1cc(Nc2ccc3nc(NCc4ccc(Oc5ncc(Cl)cn5)cc4)[nH]c3c2)n[nH]1 [Compound 470]          < 1 µM
 6  CCC(Nc1nc2ccc(Nc3cc(C(F)(F)F)n(C)n3)cc2n1C)c1ccc(Oc2ncc(C(F)(F)F)cn2)cc1 (stereo not shown) [Compound 520]         > 10 µM
 7  CN(C)c1nc2ccc(Nc3ccn(C)n3)cc2n1CCOc1ccc(OC(F)(F)F)cc1 [Compound 45]         > 10 µM
 8  Cn1ccnc1CNc1ccc2nc(NCc3ccc(Oc4ncc(Cl)cn4)cc3)n(C)c2c1 [Compound 359]          < 1 µM
 9  Cc1[nH]nc(Nc2ccc3nc(NCc4ccc(Oc5ncc(Cl)cn5)cc4)n(C)c3c2)c1Cl [Compound 481]          < 1 µM
10  Nc1ccc2[nH]c(NCc3ccc(Cl)cc3F)nc2c1 [Compound 30]          < 1 µM
11  CC(Cc1ccc(Cl)cc1Cl)Nc1nc2ccc(N)cc2n1Cc1ccccc1 (stereo not shown) [Compound 140]          < 1 µM
12  Cn1c(NCc2ccc(Oc3ccc(C(F)(F)F)cn3)cc2)nc2c(F)cc(NC3COC3)cc21 [Compound 552]          < 1 µM
13  CN(c1ccc(CNc2nc3ccc(N)cc3n2C)cc1)c1ncc(Cl)cn1 [Compound 463]          < 1 µM
14  Cn1c(NCc2ccc(Oc3ncc4cc(Cl)ccc4n3)cc2)nc2ccc(NC3COC3)cc21 [Compound 406]          < 1 µM
15  Cn1nc(Nc2ccc3nc(NCc4ccc(Oc5ccc(Cl)cn5)cc4)n(C)c3c2)cc1C(F)(F)F [Compound 502]      1 to 10 µM
